System: XF498
assay overview: NCI tumour cell line growth inhibition, 48 h
Calls of active or inactive are those of the source. No stated cut-off is given here; in the data, active = GI50 up to about 1.1 µM and inactive = higher.
In this exercise, the only acceptable responses are Y (active), N (inactive)

[
  {
    "compound": "N=C(N)n1ncc(Cl)c(Cl)c1=O",
    "answer label": "N"
  },
  {
    "compound": "COc1cccc(/C=C/c2cc(OC)c(OC)c(OC)c2)c1",
    "answer label": "N"
  }
]

Qu. Please state the recorded outcome for this compound: O=[N+]([O-])c1nc(-c2ccccn2)[nH]c1[N+](=O)[O-]
Ans. N

Qu. // param item: O=C(O)C(CS)NCc1c2ccccc2nc2ccccc12 (stereo not given) ; yields the recorded call
Ans. N

Qu. What is the recorded call for this compound in the test? CC1OC(O[C@@H]2C=C3CC[C@@H]4[C@H](CC[C@]5(C)[C@@H](c6ccc(=O)oc6)CC[C@]45O)[C@@]3(C)CC2)C(O)C(OC2OC(CO)C(O)C(O)C2O)C1O (stereo not given in full)
Ans. Y
